Values from ChEMBL document CHEMBL3885881

# Organism: Rattus norvegicus
# testMethodNotes: DrugMatrix - Regimen: Daily Repeat
# Assay type: toxicity, organism-based, Sprague-Dawley
# Set-up: regimen Daily Repeat, gender Male, age 6-8 weeks
# settings: in vivo, po, 40 mg/kg, 72 h, tissue Blood, route oral GAVAGE, dose level Low, time 3 day, […]
measure: ABSOLUTE MONOCYTE (CELLS/uL)

CN(C)CCCC1(c2ccc(F)cc2)OCc2cc(C#N)ccc21 (configuration not stated) [CITALOPRAM] ... 96.67

----------
Each entry below carries its recorded ALBUMIN.
# Species: Rattus norvegicus
# testMethodNotes: DrugMatrix - Regimen: Daily Repeat
# Format: toxicity, organism-based, Sprague-Dawley
# Design: regimen Daily Repeat, gender Male, age 6-8 weeks
# settings: in vivo, po, 0 mg/kg, 120 h, tissue Plasma, route oral GAVAGE, dose level Control, time 5 day, […]
measure: ALBUMIN (G/DL)

COC1=CC(=O)C[C@@H](C)[C@]12Oc1c(Cl)c(OC)cc(OC)c1C2=O ... 4.17
Oc1c(Cl)cc(Cl)cc1Sc1cc(Cl)cc(Cl)c1O ... 4.17
Cn1cnc([N+](=O)[O-])c1Sc1ncnc2nc[nH]c12 ... 3.87
C=CCN ... 4.07
c1ccc2[nH]c(-c3cscn3)nc2c1 ... 4.12
COc1ccc2c(c1)c(CC(=O)OCC(=O)O)c(C)n2C(=O)c1ccc(Cl)cc1 ... 4.28
COCc1c(C(C)C)nc(C(C)C)c(/C=C/[C@@H](O)C[C@@H](O)CC(=O)O)c1-c1ccc(F)cc1 ... 3.92
CC(C)(Oc1ccc(CCNC(=O)c2ccc(Cl)cc2)cc1)C(=O)O [BEZAFIBRATE] ... 3.74
CC(C)n1c(/C=C/C(O)CC(O)CC(=O)O)c(-c2ccc(F)cc2)c2ccccc21 (centres undefined) ... 4.17
